Recorded values, source patent US20220112288A1.

Below: a set of entries, each annotated with reported % CD4 Stain.
Target: T1, human CD4 on human PBMCs (human, UniProt P01730 26-458)
T1 construct: whole, on cells; also called hCD4
Assay: FACS, clonal hybridoma supernatant on PBMCs
Reply numerically in %, unit not repeated.

>  <binder>
75110_08H11A (antibody, V domains shown) VH: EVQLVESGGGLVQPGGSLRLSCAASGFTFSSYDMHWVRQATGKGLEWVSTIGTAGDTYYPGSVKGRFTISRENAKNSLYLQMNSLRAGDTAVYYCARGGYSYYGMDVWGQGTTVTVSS VL: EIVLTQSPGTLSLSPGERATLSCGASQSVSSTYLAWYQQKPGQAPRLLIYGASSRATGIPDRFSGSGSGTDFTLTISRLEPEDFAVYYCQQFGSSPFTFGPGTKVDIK

>  <value>
27.1

$$$$
>  <binder>
75110_08F20A (antibody, V domains shown) VH: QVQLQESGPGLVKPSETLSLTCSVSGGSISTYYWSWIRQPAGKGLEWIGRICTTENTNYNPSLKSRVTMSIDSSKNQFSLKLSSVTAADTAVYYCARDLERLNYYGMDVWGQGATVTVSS VL: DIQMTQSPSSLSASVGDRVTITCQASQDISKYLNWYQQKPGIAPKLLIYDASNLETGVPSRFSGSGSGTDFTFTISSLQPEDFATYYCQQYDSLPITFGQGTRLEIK

>  <value>
33.2

$$$$
>  <binder>
75110_07B16A (antibody, V domains shown) VH: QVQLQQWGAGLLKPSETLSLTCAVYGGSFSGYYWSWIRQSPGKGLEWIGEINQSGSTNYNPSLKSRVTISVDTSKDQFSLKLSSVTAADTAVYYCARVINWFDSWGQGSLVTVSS VL: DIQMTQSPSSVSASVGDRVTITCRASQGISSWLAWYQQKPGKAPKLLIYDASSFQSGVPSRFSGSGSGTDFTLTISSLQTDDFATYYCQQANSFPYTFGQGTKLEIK

>  <value>
37.3

$$$$

# context switch: different binder, same % CD4 Stain
Challenge: I'd like to know its % CD4 Stain. The binder in question is 75110_07J24A (antibody, V domains shown) VH: QAQLQESGPGLVKPSETLSLTCTVSGGSISSYYYNWIRQPAGKGLEWIGRIYTSGRTDYNPSLKSRVTMSADTSKNQFSLKLSSVTAADTAVYYCARDEGPTDAFDIWGQGTMVTVSS VL: DIVMTQTPLSLPVTPGEPASISCRSSQSLLDSDDGNTYLDWYLQKPGQSPHLLIYTLSYRASGVPDRFSGSGSGSDFTLKISRVEAEDVGVYYCMQRIEFPFTFGPGTKVDIK
Response given: 28.8
